System: PC-3
Assay: NCI tumour cell line growth inhibition, 48 h
The source made the active and inactive calls. Rule as the data show it: active = GI50 up to about 1.1 µM and inactive = higher.
Entry note: the call must match one of Y = active, N = inactive

Below are worked cases with known answers.
CCSc1s/c(=N/c2ccc(/N=c3\sc(C)c(SC)s3)cc2)sc1-c1ccc(C)cc1 :: N
Cc1cc[n+]2c(c1)-c1cc(C)cc[n+]1CC2 :: N
C1CSCC2(COC2)CSCCSCC2(COC2)CS1 :: N
O=C1Nc2ccccc2/C1=c1\[nH]c(=O)/c(=C\c2ccc(OCc3ccccc3)cn2)[nH]c1=O :: N
O=C(O)/C(Cc1ccc([N+](=O)[O-])cc1)=N\O :: N

Please state the recorded outcome for this compound: O=C(Nc1ccccc1)OCCN=c1c2ccccc2ccc2ccccc12
N

Dear colleague, could you share the recorded outcome for Cc1cc2nc3[nH]c4c(Cl)cc(Cl)cc4c3nc2cc1C when you have a moment?
N

###

Answer each item with its documented GI50.
System: UACC-62
Test: NCI tumour cell line growth inhibition, 48 h
Active and inactive are the calls of the source. Cut-off read from the data, not from the text of the source: active = GI50 up to about 1.1 µM and inactive = higher.

I have 2 compounds here; please give me GI50 for each one.
1. COC12CCC(=O)C=C1c1ccccc1N2C(C)=O (centres undefined)
2. CC(C)(C)OC(=O)/C=C/C(=O)O/C=C/[N+](=O)[O-]

1: > 100 µM (inactive); 2: > 100 µM (inactive)

Give one value of GI50 per listed compound.
1. COc1cc(CC(C(=O)O)C(=O)O)c(OC)cc1CC(C(=O)O)C(=O)O
2. NCC(=O)OCN1C(=O)C2C3C=CC(C2C1=O)C1C2C(=O)N(COC(=O)CN)C(=O)C2C31 (centres undefined)

["> 100 µM (inactive)", "23 µM (inactive)"]

###

System: HCC 2998
Assay: NCI tumour cell line growth inhibition, 48 h
Activity calls are given as the source filed them. No stated cut-off is given here; in the data, active = GI50 up to about 1.1 µM and inactive = higher.
Choose one outcome from this list and give only that: active, inactive

Cn1c2c(c3ccccc31)CC1c3c(c4ccccc4n3C)CC21 (stereo not given) :: inactive
CCOC(=O)c1sc2nc(SC)nc3c2c1N=CN3c1ccccc1Cl :: inactive
Cc1c(Cl)ccc2c1NC(=O)C2(O)CC(=O)c1ccc(Cl)cc1 (stereo not given) :: inactive
COc1cc(/C=C\c2ccc(SC)cc2)cc(OC)c1OC :: active
Cc1cn(CCCCOC(=O)NC(CCCNC(=N)N)C(=O)O)c(=O)[nH]c1=O (stereo not given) :: inactive

Hi team, can someone confirm the assay call for CSCCCNC(=O)c1csc(-c2csc(CCN)n2)n1 ?
inactive

I'd appreciate the recorded outcome for COc1cc2c(cc1OCCCC(=O)Nc1cc(C(=O)Nc3cc(C(=O)Nc4cc(C(=O)NCCCN(C)C)n(C)n4)n(C)n3)n(C)n1)N=CC1CCCN1C2=O (stereo not given) from this test.
inactive

Given CN(C)C(=S)/N=c1\ssc(=S)n1Cc1cccs1 , state the outcome it received in this test.
inactive

How did this test come out for CCNC(=O)COc1ccc(Br)cc1Br ?
inactive

Please let me know the test result on file for O=C1NC(=O)C23C(=O)NC(=O)C12C1C=CC3CC1 (stereo not given) .
inactive

###

Test system: IGROV-1
Assay: NCI tumour cell line growth inhibition, 48 h
Active and inactive are the calls of the source. Rule as the data show it: active = GI50 up to about 1.1 µM and inactive = higher.
Parameter call: string, one of label 1 = active, label 0 = inactive

Hello, I am checking results. What call was entered for CCCCNC(=S)N/N=C/c1cccc(C)n1 ?
label 0

# lookup: test call for O=C1C[C@H](c2ccccc2)C2(C(=O)c3ccccc3C2=O)[C@H](c2ccccc2)C1
label 0

Write down the call the test reported for this compound. Item: O=P(Nc1ccc(Cl)cc1)(Oc1ccccc1)N(CCCl)CCCl (stereo not drawn)
label 0

Which outcome did this test record for the compound CN(C)/C=N/S(=O)(=O)c1nn2c(C=O)c(-c3ccc(-c4ccc([N+](=O)[O-])cc4)o3)nc2s1 ?
label 0

What outcome does the record of this test show for CCOC(=O)C1CCCCc2sc(N)c(C#N)c21 (stereo not drawn) ?
label 0

Status in this test for CC(C)OP(=O)(OC(C)C)/C(=N/Nc1ccc([N+](=O)[O-])cc1)NCCN/C(=N\Nc1ccc([N+](=O)[O-])cc1)P(=O)(OC(C)C)OC(C)C ?
label 0

Name the outcome recorded for COc1cc(/C=[N+](\[O-])c2ccccc2Cl)ccc1OC(=S)S in the assay.
label 0

Which outcome was entered for the compound COc1ccc(/C=C2/CCCC/C2=N/O)cc1 in this test?
label 0

What did this assay record as the result for O=C1c2cccc3cc([N+](=O)[O-])cc(c23)C(=O)N1O ?
label 0
